# protein stability index values compiled below
B1: TRIM14 (parent)
chain: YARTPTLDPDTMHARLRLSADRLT

Variants of: B1
Assay: protein stability index of a GFP-peptide fusion (GPS, HEK-293T) (PSI 1-6); higher = more stable;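 further: lentivirally expressed fusions sorted by FACS into six bins by GFP to DsRed ratio, PSI derived from sequencing read proportions per bin multiplied by bin number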
Conditions: c terminus: a fixed tail appended
Note: the reply should be a number with no unit written.

variant_annotation=T11L numeric_result=2.27
variant_annotation=R15L numeric_result=2.29
variant_annotation=A14T numeric_result=2.61
variant_annotation=M12E numeric_result=3.6
variant_annotation=L23R numeric_result=3.21
variant_annotation=P9G numeric_result=3.11
variant_annotation=T4G numeric_result=2.21
variant_annotation=T11W numeric_result=2.15

Let me know recorded protein stability index for S19D , thanks.
2.59
